FYI, the data here is from paper PMC5540273.

# Test system: TNIK;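 note: KINOMEscan kinase panel screen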
# runConditions: concentration: 1 μM,replicates: in singlicate; n = 1
# %Inh annotations
Reply numerically in %, unit not repeated.

Some compounds with recorded %Inh:
C[C@@H]1CNc2c(sc3ccc4nc(-c5ccncc5)ccc4c23)C(=O)N1: 0
C[C@@H](Oc1cc(-n2cnc3ccc(-c4ccncc4)cc32)sc1C(N)=O)c1ccccc1Cl [GSK483724]: 9
O=C(Nc1ccccc1)c1cccc(Oc2ccc3nccn3n2)c1: 0
COc1cccc(C2=C(Nc3cccc(Cl)c3)C(=O)NC2=O)c1 [SB-341556]: 0

API: the following record is the query input.
### Prompt Which %Inh is reported for this compound? CC(=O)Nc1nc2cnc(Nc3cc(NC(=O)c4cccc(CC(C)(C)C#N)c4)ccc3C)nc2s1
### Response 0
